System: UACC-257 melanoma
TEST SUMMARY: NCI tumour cell line growth inhibition, 48 h
ASSAY READOUT: log10 TGI (log10 of the value in µM)
Short version: log10 scale, TGI, µM.

compound=Nc1nc(SCC#CCCl)c2[nH]cnc2n1 assay_readout="log10 TGI" numeric_value=1.35
compound="CCOC(=O)C(=O)CC(=O)C(Br)C(Br)c1ccc(Cl)cc1 (stereo not given)" assay_readout="log10 TGI" numeric_value=1.95
compound="CC(=O)OC1(C(C)=O)CC2(c3ccccc3)OC1(c1ccccc1)c1ccccc12 (stereo not given)" assay_readout="log10 TGI" numeric_value=1.40
compound=Cc1c(CCCl)c(Cl)n2c(nc3ccccc32)c1C#N assay_readout="log10 TGI" numeric_value=0.49
compound=Clc1ccc(Cc2nc3cc4ccccc4cc3[nH]2)cc1Cl assay_readout="log10 TGI" numeric_value=1.58
compound="CCOC(=O)C1=C(C)N(NC(=O)Nc2ccccc2)C2(N)N(NC(=O)Nc3ccccc3)C(C)=C(C(=O)OCC)C12C#N (stereo not given)" assay_readout="log10 TGI" numeric_value=1.59
compound="C1CCC(CC2CCC(NC3=NCCO3)CC2)CC1 (stereo not given)" assay_readout="log10 TGI" numeric_value=1.48
compound=CCOC(=O)c1c(CN2CCCCC2)nc2ccc(Cl)cc2c1-c1ccccc1 assay_readout="log10 TGI" numeric_value=1.75
compound="CC(C)C1OC(=O)C(Cc2ccccc2)N(C)C(=O)C(C(C)C)OC(=O)C(Cc2ccccc2)N(C)C(=O)C(C(C)C)OC(=O)C(Cc2ccccc2)N(C)C1=O (stereo not given)" assay_readout="log10 TGI" numeric_value=0.30

Please turn your attention to the following entry.
Record COC(=O)c1sc2c(c1C(=O)OC)C(=Nc1ccc(OC)cc1)SC2=Nc1ccc(OC)cc1 , field log10 TGI: 0.44

* * *

Test system: HOP-92 NSCLC
TEST SUMMARY: NCI tumour cell line growth inhibition, 48 h
ASSAY READOUT: TGI (µM)
Report as a plain number; the unit µM is understood.

See these solved cases before continuing.
molecule="O=C(CC1(O)C(=O)Nc2ccc(Cl)cc21)c1ccc(C(=O)NCC2CCC3(CC2)OOC2(CCCCC2)OO3)cc1 (stereo not given)" target="HOP-92 NSCLC" assay_readout=TGI scale_unit=µM numeric_value=2.08
molecule="CNC(=O)OC1/C(C)=C\\C(C)C(O)C(OC)CC(C)CC2=C(OC)C(=O)C=C(C2=O)N(C)C(=O)/C(C)=C/C=C\\C1OC (stereo not given)" target="HOP-92 NSCLC" assay_readout=TGI scale_unit=µM numeric_value=16
molecule=COc1ccc2c(Cl)cc(NC(=S)Nc3ccccc3)nc2c1 target="HOP-92 NSCLC" assay_readout=TGI scale_unit=µM numeric_value=49.4

Note: attention shifts to another entry.
Measured on HOP-92 NSCLC, Cc1csc(NCc2ccc(Cl)cc2)n1 has a documented TGI of 89.9

* * *

System: NCI-H522 lung
TEST SUMMARY: NCI tumour cell line growth inhibition, 48 h; in the data active means GI50 below about 0.43 µM; inactive means the rest
Returns: one label drawn from active, inactive

As a guide, the following entries are already answered.
molecule=Cc1ccc(C)c(N2CCN(c3ccncc3N)CC2)c1 target="NCI-H522 lung" cat=inactive
molecule=O=C(NCCN1CCOCC1)c1cc2c(Oc3ccc(NC(=O)C4(C(=O)Nc5ccc(F)cc5)CC4)cc3)ccnc2[nH]1 target="NCI-H522 lung" cat=inactive
molecule=COc1ccccc1NC(=O)c1sc2ncn(CCOc3ccccc3)c(=O)c2c1C target="NCI-H522 lung" cat=inactive
molecule="CCCCCn1sc(=O)n(Cc2ccc(CNC(=O)C(C)c3ccc(CC(C)C)cc3)cc2)c1=O (centres undefined)" target="NCI-H522 lung" cat=active
molecule="CC1CCc2c(C(=O)Nc3ncc(Cc4cccc([N+](=O)[O-])c4)s3)csc2C1 (centres undefined)" target="NCI-H522 lung" cat=active

How did this test come out for CC(=O)[CH-]C(=O)c1ccccc1.CC(=O)[CH-]C(=O)c1ccccc1.Cl.[O-]CCc1ccccn1.[O-]CCc1ccccn1.[Ti+4] ?
inactive

Short answer needed: outcome of this test for COc1cc(C(=O)/C=C/c2c[nH]c3ccccc23)cc(OC)c1OC ?
active

Which result was noted for this molecule in the test: COc1cc(C2c3cc4c(cc3[C@@H](Nc3ccc(F)cc3)C3COC(=O)[C@H]23)OCO4)cc(OC)c1O (some centres undefined)
inactive

What was the test verdict on N#Cc1ccc2c(-c3ccnc(NC4CC4)n3)c(-c3ccc(F)cc3)nn2c1 ?
inactive

src = PubChem BioAssay (NCI)
